Some molecules, each annotated with its measured TGI.
- Tested on: NCI-H522 lung
- METHOD: NCI tumour cell line growth inhibition, 48 h

MOLECULE	TGI
C=C(C)C(=O)CC[C@@H](C)[C@H]1[C@@H](OC2OC(CO)C(O)C(O)C2O)C[C@@]2(C)[C@@H]3C[C@H](O)C4C(C)(C)[C@@H](OC5OC(CO)C(O)C(O)C5O)CC[C@@]45C[C@@]35CC[C@]12C (some centres undefined)	> 100000 nM
CCC[CH2][Sn]([CH2]CCC)([O]C(=O)c1c(F)cccc1F)[O]C(=O)c1c(F)cccc1F	213 nM
CC1(C)O[C@H]2Cn3c(c(C#N)c4ccccc43)[C@H]2O1	> 100000 nM
C=C1C(=O)O[C@H]2[C@H]1CC/C(CNC(=O)/C=C/c1ccc(Br)cc1)=C\CC[C@@]1(C)O[C@@H]21	2300 nM

###

- System: UACC-257 melanoma
- METHOD: NCI tumour cell line growth inhibition, 48 h
ASSAY_READOUT: TGI

> print(dat)
                                    molecule  assay.result
 1  O=C(CP(c1ccccc1)c1ccccc1)c1cccc(C(=O)CP(c2ccccc2)c2ccccc2)c1      > 100 µM
 2  CNC(=O)c1ccccc1-[s+]1c2ccccc2c(=O)n1C (stereo unspecified)      > 100 µM
 3   Cc1c2cc[nH]c(C(F)(F)F)c2cc2c1nc1ccccc12      > 125 µM
 4  Nc1ncnc2c1ncn2C1OC(COP(=O)(O)CP(=O)(O)O)C(O)C1O (stereo unspecified)      > 100 µM
 5  O=C1C2CCCCC2C(=O)N1n1c(Cc2ccc(Cl)cc2)n[nH]c1=O (stereo unspecified)      > 100 µM
 6                CCOc1ccccc1NC(=O)CCC(=O)OC      > 100 µM
 7      CCOC(=O)CCCn1nnc(C(=O)OCC)c1C(=O)OCC      > 100 µM
 8  CC12CC3C(CC1SCC(=O)O2)C3(C)C (stereo unspecified)      > 100 µM
 9  CC[n+]1cnc(N)c2c(-c3ccc(Cl)cc3)cn(-c3ccc(C)cc3)c21       6.06 µM
10  CC(=O)OCC1OC(Nc2[nH]c(=O)n(C)c(=O)c2-c2csc(N)n2)C(OC(C)=O)C(OC(C)=O)C1OC(C)=O (stereo unspecified)      > 100 µM
11                  Nc1nc2c(=O)c3ccccc3sc2s1      > 100 µM
12  CC1=C(C(=O)NCc2ccccc2)C(c2ccc(C3C(C(=O)NCc4ccccc4)=C(C)NC(C)=C3C(=O)NCc3ccccc3)cc2)C(C(=O)NCc2ccccc2)=C(C)N1       32.5 µM
13            C1=C\SS/C=C\SS/C=C\SS/C=C\SS/1      > 100 µM
14     O=C(Nc1cccc2ccccc12)Oc1ccccc1C1CCCCC1       29.8 µM
15           O=c1cc(CNC2CCCC2)[nH]c(=O)[nH]1      > 100 µM
16               CCOC(=O)c1cccc(NC(=O)CCl)c1       14.1 µM
17     COc1cc2c(/C=N\N=C(N)N)c(Cl)[nH]c2cc1C       32.5 µM
18                CC(C)(C)OC(=O)CN1CCNCCNCC1      > 100 µM
19  COc1ccc(/C(=N/NC(N)=O)C2(O)C(=O)Nc3ccc([N+](=O)[O-])cc32)cc1 (stereo unspecified)       39.4 µM
20  O=P([O-])(O)OP(=O)([O-])O.[NH-][C@H]1CCCC[C@@H]1[NH-].[OH-].[OH-].[Pt+4]      > 100 µM
21  C(=Nc1ccccc1)C1CCCC[N-]1.C(=Nc1ccccc1)C1CCCC[N-]1.[Cu+2].[O-][Cl+3]([O-])([O-])O (stereo unspecified)     > 55.2 µM
